Would you mind telling me the reported MIC of each entry?
Tested on: Mycobacterium avium
Test name: Antibacterial activity against Mycobacterium avium ATCC 25291 assessed as bacterial growth inhibition incubated for 2 to 3 weeks by resazurin dye based assay
Format: functional
Applied conditions: time 2-3 weeks
Numbers only, in µM.

Consider Brc1cccc(COc2ccc(CNCc3ccccc3)cc2)c1 . Its measured MIC is 31.3

Consider NCC[C@H](O)C(=O)N[C@@H]1C[C@H](N)[C@@H](O[C@H]2O[C@H](CN)[C@@H](O)[C@H](O)[C@H]2O)[C@H](O)[C@H]1O[C@H]1O[C@H](CO)[C@@H](O)[C@H](N)[C@H]1O . Its measured MIC is 3.9

Now look at this one.
Consider Fc1ccc(COc2cccc(CNCc3ccccc3)c2)cc1 . Its measured MIC is 15.6

* * *

Would you mind telling me the reported MIC of each entry?
Tested on: Mycobacteroides abscessus
Test name: Antibacterial activity against Mycobacterium abscessus ATCC 19977 assessed as bacterial growth inhibition incubated for 2 to 3 weeks by resazurin dye based assay
Format: functional
Applied conditions: time 2-3 weeks

Solved entries (count: 10):
Summary line: c1ccc(COc2ccccc2CNCc2cccnc2)cc1 , Mycobacteroides abscessus, reported MIC = > 62.5 µM

Summary line: NNC(=O)c1ccncc1 , Mycobacteroides abscessus, reported MIC = > 31.3 µM

Summary line: Fc1ccc(COc2ccccc2CNCc2cccnc2)cc1 , Mycobacteroides abscessus, reported MIC = > 62.5 µM

Summary line: c1ccc(CNCc2ccc(OCc3ccccc3)cc2)cc1 , Mycobacteroides abscessus, reported MIC = > 62.5 µM

Summary line: COc1ccc(COc2ccc(CNCc3ccccc3)cc2)cc1 , Mycobacteroides abscessus, reported MIC = 31.3 µM

Summary line: Clc1cccc(COc2ccccc2CNCc2cccnc2)c1 , Mycobacteroides abscessus, reported MIC = > 62.5 µM

Summary line: c1ccc(COc2ccc(CNCc3cccnc3)cc2)cc1 , Mycobacteroides abscessus, reported MIC = > 62.5 µM

Summary line: Clc1ccc(COc2ccc(CNCc3cccnc3)cc2)cc1 , Mycobacteroides abscessus, reported MIC = > 62.5 µM

Summary line: Fc1ccc(COc2cccc(CNCc3cccnc3)c2)cc1 , Mycobacteroides abscessus, reported MIC = > 62.5 µM

Summary line: Clc1ccc(COc2cccc(CNCc3ccncc3)c2)cc1 , Mycobacteroides abscessus, reported MIC = > 62.5 µM

Could you report MIC for every entry in the following list?
1. c1ccc(CNCc2ccc(OCc3ccc(-c4ccccc4)cc3)cc2)cc1
2. Fc1ccc(COc2ccc(CNCc3ccccc3)cc2)cc1

1. 7.8 µM
2. > 62.5 µM

* * *

System: Mycobacterium avium
Test name: Antibacterial activity against Mycobacterium avium ATCC 25291 assessed as bacterial growth inhibition incubated for 2 to 3 weeks by resazurin dye based assay
Format: functional
Applied conditions: time 2-3 weeks
Quantity name: MIC

Solved entries (count: 3):
Consider Clc1ccc(COc2ccccc2CNCc2ccccc2)cc1 . Its measured MIC is > 62.5 µM

Consider Clc1ccc(COc2ccccc2CNCc2ccncc2)cc1 . Its measured MIC is > 62.5 µM

Consider Clc1ccc(COc2cccc(CNCc3cccnc3)c2)cc1 . Its measured MIC is > 62.5 µM

Could you report MIC for every entry in the following list?
1. c1ccc(COc2ccc(CNCc3cccnc3)cc2)cc1
2. Clc1cccc(COc2ccccc2CNCc2ccccc2)c1
3. Brc1ccccc1COc1ccc(CNCc2ccccc2)cc1
4. Clc1ccc(COc2ccc(CNCc3cccnc3)cc2)cc1
5. Fc1ccc(COc2ccc(CNCc3cccnc3)cc2)cc1
6. COc1ccc(COc2ccc(CNCc3ccccc3)cc2)cc1
7. Fc1ccc(COc2ccc(CNCc3ccncc3)cc2)cc1
8. c1ccc(CNCc2ccc(OCc3ccc(-c4ccccc4)cc3)cc2)cc1

["31.3 µM", "> 62.5 µM", "15.6 µM", "> 62.5 µM", "> 62.5 µM", "31.3 µM", "> 62.5 µM", "> 62.5 µM"]

* * *

Tested on: Mycobacterium parascrofulaceum
Test name: Antibacterial activity against Mycobacterium parascrofulaceum ATCC BAA-614 assessed as bacterial growth inhibition incubated for 2 to 3 weeks by resazurin dye based assay
Type: functional
Applied conditions: time 2-3 weeks
Quantity name: MIC (µM)
One number for each entry, in µM.

Consider c1ccc(CNCc2ccc(OCc3ccc(-c4ccccc4)cc3)cc2)cc1 . Its measured MIC is 15.6

Consider c1ccc(COc2ccccc2CNCc2ccncc2)cc1 . Its measured MIC is 62.5

Consider Fc1ccc(COc2ccccc2CNCc2ccccc2)cc1 . Its measured MIC is 31.3

Consider Clc1cccc(COc2ccccc2CNCc2ccncc2)c1 . Its measured MIC is 31.3

Consider Brc1ccc(COc2ccc(CNCc3ccccc3)cc2)cc1 . Its measured MIC is 7.8

Consider NNC(=O)c1ccncc1 . Its measured MIC is 7.8

Consider Cc1ccc(COc2ccc(CNCc3ccccc3)cc2)cc1 . Its measured MIC is 15.6

Consider Clc1ccc(COc2ccc(CNCc3ccccc3)cc2)cc1 . Its measured MIC is 15.6

Could you report MIC for every entry in the following list?
1. c1ccc(CNCc2ccc(OCc3ccccc3)cc2)cc1
2. Brc1ccccc1COc1ccc(CNCc2ccccc2)cc1
3. NCC[C@H](O)C(=O)N[C@@H]1C[C@H](N)[C@@H](O[C@H]2O[C@H](CN)[C@@H](O)[C@H](O)[C@H]2O)[C@H](O)[C@H]1O[C@H]1O[C@H](CO)[C@@H](O)[C@H](N)[C@H]1O
4. Clc1ccc(COc2ccccc2CNCc2ccccc2)cc1
5. c1ccc(CNCc2ccccc2OCc2ccccc2)cc1
6. Brc1cccc(COc2ccc(CNCc3ccccc3)cc2)c1

[3.9, 3.9, 0.25, 31.3, 15.6, 2]

* * *

System: Mycobacterium tuberculosis
Test name: Antibacterial activity against Mycobacterium tuberculosis H37Ra assessed as bacterial growth inhibition incubated 2 to 3 weeks by resazurin dye based assay
Format: functional
Applied conditions: time 2-3 weeks
Label key: rule met means MIC under 20 µM; rule not met means MIC of 20 µM or more.

These recorded examples may help you get a feel for the data.
Is MIC of Fc1ccc(COc2cccc(CNCc3cccnc3)c2)cc1 strictly below 20 µM?
rule not met

Is MIC of Brc1ccc(COc2ccc(CNCc3ccccc3)cc2)cc1 strictly below 20 µM?
rule met

Next:
Is MIC of CC(C)c1ccc(COc2ccc(CNCc3ccccc3)cc2)cc1 strictly below 20 µM?
rule met

Is MIC of Clc1ccc(COc2ccccc2CNCc2ccccc2)cc1 strictly below 20 µM?
rule not met

Is MIC of Clc1ccc(COc2cccc(CNCc3cccnc3)c2)cc1 strictly below 20 µM?
rule met

Is MIC of CC(C)(C)c1ccc(COc2ccc(CNCc3ccccc3)cc2)cc1 strictly below 20 µM?
rule met

Is MIC of Clc1cccc(COc2ccccc2CNCc2ccccc2)c1 strictly below 20 µM?
rule not met

Is MIC of Cc1ccc(COc2ccc(CNCc3ccccc3)cc2)cc1 strictly below 20 µM?
rule met

Is MIC of Clc1ccc(COc2cccc(CNCc3ccccc3)c2)cc1 strictly below 20 µM?
rule met

Is MIC of c1ccc(COc2ccccc2CNCc2cccnc2)cc1 strictly below 20 µM?
rule not met

Is MIC of Brc1cccc(COc2ccc(CNCc3ccccc3)cc2)c1 strictly below 20 µM?
rule met

Is MIC of Clc1cccc(COc2ccccc2CNCc2ccncc2)c1 strictly below 20 µM?
rule not met

* * *

Would you mind telling me the reported log10(MIC) of each entry?
Test system: Mycobacterium tuberculosis
Test name: Antibacterial activity against Mycobacterium tuberculosis H37Ra assessed as bacterial growth inhibition incubated 2 to 3 weeks by resazurin dye based assay
Assay type: functional
Applied conditions: time 2-3 weeks
The common logarithm of MIC in µM is what is listed.

Consider c1ccc(COc2ccc(CNCc3cccnc3)cc2)cc1 . Its measured log10(MIC) is 1.50

Consider Clc1ccc(COc2ccc(CNCc3ccccc3)cc2)cc1 . Its measured log10(MIC) is 0.59

Consider c1ccc(COc2ccccc2CNCc2ccncc2)cc1 . Its measured log10(MIC) is 2.10

Consider c1ccc(CNCc2ccc(OCc3ccc(-c4ccccc4)cc3)cc2)cc1 . Its measured log10(MIC) is 0.30

Consider Fc1ccc(COc2cccc(CNCc3ccccc3)c2)cc1 . Its measured log10(MIC) is 0.59

Could you report log10(MIC) for every entry in the following list?
1. Fc1ccc(COc2ccccc2CNCc2cccnc2)cc1
2. c1ccc(CNCc2ccc(OCc3ccccc3)cc2)cc1
3. Clc1ccc(COc2cccc(CNCc3ccncc3)c2)cc1
4. Fc1ccc(COc2ccc(CNCc3ccncc3)cc2)cc1
5. Clc1ccc(COc2ccc(CNCc3ccncc3)cc2)cc1

[2.10, 1.80, 1.50, 0.89, 0.59]

* * *

Would you mind telling me the reported IC50 of each entry?
Assay system: N-acetyltransferase Eis (Mycobacterium tuberculosis (strain ATCC 25618 / H37Rv))
Sequence (P9WFK7 whole entry): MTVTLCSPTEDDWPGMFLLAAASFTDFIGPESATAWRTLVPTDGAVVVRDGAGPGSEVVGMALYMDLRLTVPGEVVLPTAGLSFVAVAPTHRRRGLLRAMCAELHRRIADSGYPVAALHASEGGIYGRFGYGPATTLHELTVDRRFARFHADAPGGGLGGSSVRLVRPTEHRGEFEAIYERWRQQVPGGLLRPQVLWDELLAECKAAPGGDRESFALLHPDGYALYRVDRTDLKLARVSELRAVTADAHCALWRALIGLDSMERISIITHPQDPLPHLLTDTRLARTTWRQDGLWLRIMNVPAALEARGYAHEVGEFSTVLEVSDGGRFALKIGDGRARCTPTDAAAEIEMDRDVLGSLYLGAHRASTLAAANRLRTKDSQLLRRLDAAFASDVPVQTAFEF
Test name: Inhibition of wild-type Mycobacterium tuberculosis Eis expressed in Escherichia coli BL21(DE3) cells incubated for 5 mins by Ellman's method
Answers are plain numbers, in µM.

Solved entries (count: 4):
Consider Fc1ccc(COc2cccc(CNCc3ccncc3)c2)cc1 . Its measured IC50 is 14

Consider Clc1ccc(COc2cccc(CNCc3cccnc3)c2)cc1 . Its measured IC50 is 2.5

Consider Brc1ccc(COc2ccc(CNCc3ccccc3)cc2)cc1 . Its measured IC50 is 1.5

Consider Clc1cccc(COc2ccccc2CNCc2ccccc2)c1 . Its measured IC50 is 6.5

Next:
Consider Fc1ccc(COc2cccc(CNCc3ccccc3)c2)cc1 . Its measured IC50 is 7.3
